Taken from patent US20220281997A1.

- measured target: T1, AS588 VHH (camel-derived)
- T1 construct: One of the 10 different camel-derived nanobodies; not shown: His tag (VHH-His)
- T1 sequence (VHH, as listed by the source): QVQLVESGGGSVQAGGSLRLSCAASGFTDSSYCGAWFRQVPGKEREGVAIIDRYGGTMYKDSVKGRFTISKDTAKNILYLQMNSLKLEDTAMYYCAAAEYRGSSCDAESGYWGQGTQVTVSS
- protocol text: indirect ELISA, VHH coated
measured endpoint: binding result

R166.D1 (antibody, V domains shown, Rabbit monoclonal; also called clone R166.D1) VH: QSVEESGGRLVKPDESLTLTCTVSGFSLSNYDMIWVRQAPGKGLEWIGVIYPTGTTYYANWVKGRFTISKTSTTVGLLITSPTTEDTATYFCARKPILYVDSSGWYIDLWGQGTLVTVSS VL: AYDMTQTPSSVSAAVGGTVSIKCQASENINNYLSWYQQKPGQPPKLLIYQASRLASAVPSRFKGSGSGTQFTLTIDDLECADAATYYCQQGHSVSNDVGNVFGGGTEVVVKG :: binds
R166.E5 (antibody, V domains shown, Rabbit monoclonal; also called clone R166.E5) VH: QSLEESGGRLVTPGTPLTLTCTASGFSLSGYYMIWVRQAPGKGLEYIGIVTSSGSTHYASWANGRFAISKTSSTTVDLKMPSLTTEDTATYFCAREGGWAFDLWGQGTLVTVSS VL: QVLTQTPFSVSTAVGGTVTINCQSSESVANSNWLSWYQQKPGQPPKLLIYWASKLASGVPSRFSGSGSGTQFTLTISGVQCADAATYYCQGGYTSDRRAFGGGTEVVVKG :: binds
R166.H8 (antibody, V domains shown, Rabbit monoclonal; also called clone R166.H8) VH: QSVEESGGRLVTPGTPLTLTCTVSGFSLSSFAMSWVRQAPGKGLEWIGIIYATGGTRDYATWAAGRFTISKTSTTVGLKMTSPTTEDTATYFCARDRSPDYSAAFNLWGQGTLVTVSS VL: IVMTQTPSSKSVPVGDTVTINCQASESVYSNNHLAWFQQKPGQPPKLLIYSASTLESGVPSRFKGSGSGTQFTLTISGVQCDDAATYYCAGYKSSDTDGTSFGGGTEVVVKG :: binds
